AC50 data for UniProtKB Q01959 follow.
Sequence (Q01959 whole entry): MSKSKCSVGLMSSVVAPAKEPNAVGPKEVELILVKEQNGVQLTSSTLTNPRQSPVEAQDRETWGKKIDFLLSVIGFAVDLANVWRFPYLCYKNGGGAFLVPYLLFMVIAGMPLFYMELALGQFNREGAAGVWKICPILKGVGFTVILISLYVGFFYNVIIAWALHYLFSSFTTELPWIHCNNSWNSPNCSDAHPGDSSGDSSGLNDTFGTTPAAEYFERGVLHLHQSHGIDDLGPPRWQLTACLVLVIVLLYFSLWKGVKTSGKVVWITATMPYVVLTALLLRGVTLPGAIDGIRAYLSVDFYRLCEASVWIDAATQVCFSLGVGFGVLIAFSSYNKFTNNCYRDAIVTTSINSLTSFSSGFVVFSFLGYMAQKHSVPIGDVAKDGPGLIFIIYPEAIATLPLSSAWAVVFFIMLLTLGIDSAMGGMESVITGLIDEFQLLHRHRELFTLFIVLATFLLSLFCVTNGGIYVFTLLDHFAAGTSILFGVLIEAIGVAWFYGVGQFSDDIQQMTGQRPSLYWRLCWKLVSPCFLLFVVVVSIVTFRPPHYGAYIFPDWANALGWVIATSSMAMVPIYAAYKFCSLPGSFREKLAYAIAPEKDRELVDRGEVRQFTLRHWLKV

COMPOUND: C[C@]12CC[C@@H]3c4ccc(O)cc4C[C@@H](CCCCCCCCC[S+]([O-])CCCC(F)(F)C(F)(F)F)[C@H]3[C@@H]1CC[C@@H]2O (stereo partly specified) [FULVESTRANT]
TARGET SYSTEM: UniProtKB Q01959
AC50: > 30 µM
//
COMPOUND: O=C1CN=C(c2ccccc2)c2cc([N+](=O)[O-])ccc2N1 [NITRAZEPAM]
TARGET SYSTEM: UniProtKB Q01959
AC50: > 10 µM
//
COMPOUND: CCCCCC(=O)O[C@]1(C(C)=O)CC[C@H]2[C@@H]3CCC4=CC(=O)CC[C@]4(C)[C@H]3CC[C@@]21C [HYDROXYPROGESTERONE CAPROATE]
TARGET SYSTEM: UniProtKB Q01959
AC50: 21.3 µM
//
COMPOUND: OC[C@H]1O[C@@](CO)(O[C@H]2O[C@H](CO)[C@@H](O)[C@H](O)[C@H]2O)[C@@H](O)[C@@H]1O [SUCROSE]
TARGET SYSTEM: UniProtKB Q01959
AC50: > 30 µM
//
COMPOUND: CCC(=O)O[C@]1(C(=O)SCF)[C@H](C)C[C@H]2[C@@H]3C[C@H](F)C4=CC(=O)C=C[C@]4(C)[C@@]3(F)[C@@H](O)C[C@@]21C [FLUTICASONE PROPIONATE]
TARGET SYSTEM: UniProtKB Q01959
AC50: > 30 µM
//
COMPOUND: Nc1cc(-c2ccncc2)c[nH]c1=O [INAMRINONE]
TARGET SYSTEM: UniProtKB Q01959
AC50: > 30 µM
//
COMPOUND: CCC(C)C1(CC)C(=O)NC(=O)NC1=O (stereo unspecified) [BUTABARBITAL]
TARGET SYSTEM: UniProtKB Q01959
AC50: > 30 µM
//
COMPOUND: COc1cc2nccc(Oc3ccc(NC(=O)C4(C(=O)Nc5ccc(F)cc5)CC4)cc3)c2cc1OC [CABOZANTINIB]
TARGET SYSTEM: UniProtKB Q01959
AC50: > 30 µM
//
COMPOUND: CCCCC1C(=O)N(c2ccccc2)N(c2ccccc2)C1=O [PHENYLBUTAZONE]
TARGET SYSTEM: UniProtKB Q01959
AC50: > 30 µM
//
COMPOUND: CN(C(=O)c1c(O)c2ccccc2n(C)c1=O)c1ccccc1 [ROQUINIMEX]
TARGET SYSTEM: UniProtKB Q01959
AC50: > 30 µM
//
COMPOUND: CCC1(c2ccccc2)CCC(=O)NC1=O (stereo unspecified) [GLUTETHIMIDE]
TARGET SYSTEM: UniProtKB Q01959
AC50: > 10 µM
//
COMPOUND: CC(=O)[C@]1(O)Cc2c(O)c3c(c(O)c2[C@@H](O[C@H]2C[C@H](N)[C@H](O)[C@H](C)O2)C1)C(=O)c1ccccc1C3=O [IDARUBICIN]
TARGET SYSTEM: UniProtKB Q01959
AC50: 15 µM
//
COMPOUND: CN1C[C@H](C(=O)N[C@]2(C)O[C@@]3(O)[C@@H]4CCCN4C(=O)[C@H](Cc4ccccc4)N3C2=O)C=C2c3cccc4[nH]cc(c34)C[C@H]21 [ERGOTAMINE]
TARGET SYSTEM: UniProtKB Q01959
AC50: > 30 µM
//
COMPOUND: C/C(=C\C(=O)OCCCCCCCCC(=O)O)C[C@@H]1OC[C@H](C[C@@H]2O[C@H]2[C@@H](C)[C@H](C)O)[C@@H](O)[C@H]1O [MUPIROCIN]
TARGET SYSTEM: UniProtKB Q01959
AC50: > 30 µM
//
COMPOUND: Nc1ccc(S(=O)(=O)Nc2nccs2)cc1 [SULFATHIAZOLE]
TARGET SYSTEM: UniProtKB Q01959
AC50: > 10 µM
//
COMPOUND: Oc1ccc2c(c1)[C@@]13CCCC[C@@]1(O)[C@@H](C2)N(CC1CCC1)CC3 [BUTORPHANOL]
TARGET SYSTEM: UniProtKB Q01959
AC50: > 30 µM
